Experiment: Human HepG2 cell viability assay in 384 well format
Format: toxicity, cell-based
Design: dose 125 nL, time 70.5 hour; concentration not given beside the values
Settings: HepG2 cells, read-out: Inhibition
Recorded cytotoxicity at 70.5 h for the following molecules
EXPERIMENTAL_READOUT: cytotoxicity at 70.5 h (%)

INSERT INTO measurements (molecule, experimental_readout, unit_text, readout_value) VALUES
  ('O=C(CC1NC(N2CCc3ccccc3C2)=NC1=O)Nc1ccccc1 (stereo not drawn)', 'cytotoxicity at 70.5 h', '%', -5.52),
  ('Cc1noc(C)c1CN1CCC2(CC1)CN(c1ccccn1)CCO2', 'cytotoxicity at 70.5 h', '%', 17.3),
  ('CC(C)c1cccc(NC(=O)N2CC(N(C)C)C2)c1', 'cytotoxicity at 70.5 h', '%', -0.462),
  ('CNc1cc2c(nn1)CCN(C(=O)c1ccc(-n3cccn3)nc1)C2', 'cytotoxicity at 70.5 h', '%', -14.4),
  ('CN1CCCCC1c1cncc(N2CCC(O)CC2)n1 (stereo not drawn)', 'cytotoxicity at 70.5 h', '%', -0.469),
  ('O=S(=O)(NCCNc1ccc(-n2cccn2)nn1)c1ccccc1', 'cytotoxicity at 70.5 h', '%', -2.97),
  ('Cc1ncsc1CCN1CCN(C(=O)c2ccc(=O)[nH]c2)CC1', 'cytotoxicity at 70.5 h', '%', -1.09),
  ('CC(C)n1ccnc1C1CCN(C(=O)c2ccccn2)CC1', 'cytotoxicity at 70.5 h', '%', -6.85),
  ('C1CC1c1nsc(N2CCN(C3CC3)CC2)n1', 'cytotoxicity at 70.5 h', '%', 1.41),
  ('Fc1ccc(-c2nnc(CNC3CCc4ncnn4C3)o2)cc1 (stereo not drawn)', 'cytotoxicity at 70.5 h', '%', -12.1),
  ('Cc1ncccc1Oc1ncnc(N2CCC3(CCCO3)CC2)c1C', 'cytotoxicity at 70.5 h', '%', -7.69),
  ('c1ccc(OCCN2CCN(c3ncnc4[nH]ccc34)CC2)cc1', 'cytotoxicity at 70.5 h', '%', 24.7),
  ('Cc1noc(C2(C)CCN(C(=O)C(C)C)CC2)n1', 'cytotoxicity at 70.5 h', '%', -5.14),
  ('CC(C)c1noc(C(C)Nc2nccc(CCC(F)(F)F)n2)n1 (stereo not drawn)', 'cytotoxicity at 70.5 h', '%', -10.8),
  ('Cn1cc(CC2CCN(C(=O)NCCCc3ccc(O)cc3)C2)cn1 (stereo not drawn)', 'cytotoxicity at 70.5 h', '%', -9.85),
  ('Cc1n[nH]c2c1C(c1cc(F)cc(F)c1)SCC(=O)N2 (stereo not drawn)', 'cytotoxicity at 70.5 h', '%', 17.9),
  ('CC(C)(C)S(=O)(=O)c1ccc(N2CCC(n3cccn3)CC2)cn1', 'cytotoxicity at 70.5 h', '%', 6.49),
  ('O=C(N1CCCO1)[C@@]12CCO[C@@H]1CCN(Cc1cccnc1)C2', 'cytotoxicity at 70.5 h', '%', -9.68),
  ('Cc1nc(CN2CC3(CCN(c4ncccn4)C3)CC2=O)cs1 (stereo not drawn)', 'cytotoxicity at 70.5 h', '%', -23.8),
  ('CN1CCN(c2ccc(NCc3ccc([S+](C)[O-])cc3)cn2)CC1 (stereo not drawn)', 'cytotoxicity at 70.5 h', '%', -0.416),
  ('CC(O)C1CCN(c2cc(Cl)ccc2C#N)CC1 (stereo not drawn)', 'cytotoxicity at 70.5 h', '%', -14.2),
  ('Cc1ccc(CN(Cc2ccccn2)C(=O)[C@H]2CC[C@@H](N)C2)s1', 'cytotoxicity at 70.5 h', '%', -10.2),
  ('Cc1c(C(=O)N2CCC2(C)C)nnn1-c1cccc2cnccc12', 'cytotoxicity at 70.5 h', '%', -12.7),
  ('CC(C)C1CCCN1C(=O)Nc1ccc(=O)n(C)c1 (stereo not drawn)', 'cytotoxicity at 70.5 h', '%', 15),
  ('Cc1cc(C(=O)N(C)CC(F)(F)C(F)(F)F)ccc1-n1cncn1', 'cytotoxicity at 70.5 h', '%', 2.03),
  ('CCOCCn1nc(C)cc1C(=O)N1CCOCC(CO)C1 (stereo not drawn)', 'cytotoxicity at 70.5 h', '%', 12),
  ('Cc1ccc(CN2CC[C@@H](NC(=O)c3cccnc3)[C@H](O)C2)s1', 'cytotoxicity at 70.5 h', '%', -10.7),
  ('Cc1cccc(C)c1OC1CN(C(=O)C2CCCN(C(=O)N(C)C)C2)C1 (stereo not drawn)', 'cytotoxicity at 70.5 h', '%', -9.46),
  ('CCC(C(=O)Nc1ccc2c(C)n[nH]c2c1)N1CCCC1=O (stereo not drawn)', 'cytotoxicity at 70.5 h', '%', 21.5),
  ('Cn1cc(C(=O)N2CCOc3cc(F)ccc32)ccc1=O', 'cytotoxicity at 70.5 h', '%', -7.98),
  ('C1CN(Cc2noc(C3CC3)n2)CCN(Cc2nnc(C3CC3)o2)C1', 'cytotoxicity at 70.5 h', '%', 15.4),
  ('Cc1csc2cc(C(=O)NC3CCCC3)cnc12', 'cytotoxicity at 70.5 h', '%', 3.45),
  ('CC1CCC(NC(=O)Nc2ccc(CC(=O)N(C)C)cc2)CC1 (stereo not drawn)', 'cytotoxicity at 70.5 h', '%', -5.4),
  ('Cc1cnccc1CCNC(=O)Nc1cnc(N(C)C)nc1', 'cytotoxicity at 70.5 h', '%', 25.9),
  ('COc1cccc(CN2CCOC(c3cnccn3)C2)c1F (stereo not drawn)', 'cytotoxicity at 70.5 h', '%', -8.48),
  ('Cc1nc(N[C@H]2COC[C@@H]2N2CCCCC2)c2c(C)nn(C)c2n1', 'cytotoxicity at 70.5 h', '%', -4.88),
  ('c1cc(CN2CCCn3nnc(COCC4CC4)c3C2)ccn1', 'cytotoxicity at 70.5 h', '%', -15.6),
  ('CC(CCc1ccccc1)NC(=O)CN1CCOCC1 (stereo not drawn)', 'cytotoxicity at 70.5 h', '%', -3.3),
  ('c1ccc(-c2nc(CN3CCOC(Cn4cccn4)C3)co2)cc1 (stereo not drawn)', 'cytotoxicity at 70.5 h', '%', 4.42),
  ('CC(CN1CCC2(CC1)N=C(N(C)C)NC2=O)c1ccccc1 (stereo not drawn)', 'cytotoxicity at 70.5 h', '%', -12.1),
  ('Cc1nnc(CN2CCN(Cc3nccn3C)CC2)n1C', 'cytotoxicity at 70.5 h', '%', -8.45),
  ('Cc1noc([C@@H]2C[C@H](NS(=O)(=O)Cc3ccccc3)CN2C)n1', 'cytotoxicity at 70.5 h', '%', -3.9),
  ('O=C(CCc1cc2n(n1)CCCN(Cc1ccccc1F)C2)NC1CC1', 'cytotoxicity at 70.5 h', '%', 0.504),
  ('CCCc1nc(NCCOC)c2c(n1)c(C)nn2CC', 'cytotoxicity at 70.5 h', '%', -7.81),
  ('COc1cc(-c2nc3c([nH]2)CCCNC3=O)cc(OC)c1OC', 'cytotoxicity at 70.5 h', '%', -1.49),
  ('Cc1nc(N2CCCC2)ncc1-c1cc(O)nc(N2CCCCC2)n1', 'cytotoxicity at 70.5 h', '%', -10.4),
  ('O=C(NCC(O)c1ccc(F)cc1F)c1cccnc1O (stereo not drawn)', 'cytotoxicity at 70.5 h', '%', -15.5),
  ('Cc1nc(-c2ccc(S(=O)(=O)N3CCOCC3)cc2)co1', 'cytotoxicity at 70.5 h', '%', -6.53);
